Sourced from patent US20230183218A1

Tested On: Rat M4 (Rattus norvegicus, UniProt P08485)
Sequence (P08485 whole entry): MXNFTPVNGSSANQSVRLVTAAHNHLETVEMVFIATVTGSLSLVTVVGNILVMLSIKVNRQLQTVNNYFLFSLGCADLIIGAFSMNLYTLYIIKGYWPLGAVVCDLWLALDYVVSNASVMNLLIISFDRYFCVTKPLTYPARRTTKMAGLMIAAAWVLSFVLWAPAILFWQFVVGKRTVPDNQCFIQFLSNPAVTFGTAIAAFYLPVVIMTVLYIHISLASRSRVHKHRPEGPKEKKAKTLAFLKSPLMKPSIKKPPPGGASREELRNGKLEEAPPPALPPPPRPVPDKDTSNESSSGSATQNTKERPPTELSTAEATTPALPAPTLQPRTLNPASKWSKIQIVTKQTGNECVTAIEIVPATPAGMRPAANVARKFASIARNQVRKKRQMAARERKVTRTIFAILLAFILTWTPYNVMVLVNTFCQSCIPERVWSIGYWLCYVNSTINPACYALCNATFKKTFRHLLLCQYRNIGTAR
Assay Text: mAChR M4 cell-based functional assay (calcium flux, antagonist mode vs EC80 acetylcholine), rat M4/Gqi5/CHO-K1 cells
Cond: decrease of response elicited by EC80 acetylcholine; rat M4/Gqi5 CHO-K1 cells
Measure: IC50 (nM)

Lab note: Cc1cnn(C)c1-c1ccc(N[C@H]2C[C@@H]3CN(C4CCOC(C)(C)C4)C[C@@H]3C2)nn1 (some centres unmarked) gave IC50 of 2030

According to the records, this compound Cc1cc(CN2C[C@H]3C[C@H](Nc4ccc([S+]([O-])c5ccccc5)nn4)C[C@H]3C2)ccc1F (some centres unmarked) displays IC50 of 970

// field: IC50; key: [O-][S+](c1ccccc1)c1ccc(N[C@H]2C[C@@H]3CN(CC4CCOCC4)C[C@@H]3C2)nn1 (some centres unmarked) ; value = 113

Just so you know, measured IC50 for "Fc1ccc(Cl)c(-c2ccc(N[C@H]3C[C@@H]4CN(C5CCCCCC5)C[C@@H]4C3)nn2)c1" came out at 41.8

Per the record, CC1(C)CC(N2C[C@H]3C[C@H](Nc4ccc(N5CCC(F)(F)CC5)nn4)C[C@H]3C2)CCO1 (some centres unmarked) has IC50 of 506

A: Fc1ccc(Cl)c(-c2ccc(N[C@H]3C[C@@H]4CN(C5CCC6(CCCCC6)CC5)C[C@@H]4C3)nn2)c1
B: Cc1cc2c(cc1CN1C[C@H]3C[C@H](Nc4ccc(S(=O)(=O)C5CCCCC5)nn4)C[C@H]3C1)OCO2
C: O=S(=O)(c1ccccc1)c1ccc(N[C@H]2C[C@@H]3CN(Cc4ncccc4C(F)(F)F)C[C@@H]3C2)nn1
(Q) Sort (3 compounds) by IC50: min first. Returns: the labels arranged in the requested order.
(A) A, B, C

I: COCCCN1C[C@H]2C[C@H](Nc3ccc(-c4cc(F)ccc4Cl)nn3)C[C@H]2C1
II: O=S(=O)(c1ccc(N[C@H]2C[C@@H]3CN(Cc4ccc5[nH]ccc5c4)C[C@@H]3C2)nn1)C1CCCCC1
(Q) Hey, which is lower on measured IC50, I or II ? Answer by quoting the chosen item's label.
(A) I

A: CC1(C)CC(N2C[C@H]3C[C@H](Nc4ccc(-c5ccc6nccn6c5)nn4)C[C@H]3C2)CCO1 (some centres unmarked)
B: CCCN1C(=O)C(C)(C)c2cc(N[C@H]3C[C@@H]4CN(CCC(C)(C)C)C[C@@H]4C3)nnc21
(Q) I would appreciate it if you could say which entry, A or B , has the lower IC50 value. Which one? Tell me its label.
(A) B
